- Test system: HCT-116
- EXPERIMENT_SUMMARY: cells
- SETTINGS: Homo sapiens
pIC50: −log10 of the molar value.
Documented pIC50 across a set of compounds

Answered cases to consult:
INSERT INTO assay_data (molecule, test_target, observed_measurement) VALUES
  ('O=C(Cc1ccccc1)Nc1ccc(CN2CCN(c3nnc(NC(=O)Cc4ccccc4)s3)CC2)cc1', 'HCT-116', '< 5.00'),
  ('O=C(Cc1ccccc1)Nc1nnc(N2CCN(Cc3cccc(C(=O)NCc4ccc(C(F)(F)F)cc4)c3)CC2)s1', 'HCT-116', '< 5.00'),
  ('CC(C)c1ccc(CNC(=O)c2cccc(CN3CCN(c4nnc(NC(=O)Cc5ccccc5)s4)CC3)c2)cc1', 'HCT-116', '< 5.00');

What value of pIC50 has been recorded for this entry: `O=C(Cc1ccccc1)Nc1nnc(N2CCN(Cc3cccc(C(=O)NCCc4ccc(F)cc4)c3)CC2)s1`
< 5.00

---

Documented IC50 across a set of compounds
- Tested on: HCT-116
- EXPERIMENT_SUMMARY: cells
- SETTINGS: Homo sapiens

Answered cases to consult:
INSERT INTO assay_data (molecule, observed_measurement) VALUES
  ('Cc1cccc(CN(C)C(=O)c2ccc(CN3CCN(c4nnc(NC(=O)Cc5ccccc5)s4)CC3)cc2)c1', '> 10 µM'),
  ('CN1CCC(CNC(=O)c2ccc(COC3CCN(c4nnc(NC(=O)Cc5ccccc5)s4)CC3)cc2)CC1', '> 10 µM');

Consider the additional compound presented here.
What value of IC50 has been recorded for this entry: `CCN1CCC(NC(=O)c2ccc(COC3CCN(c4nnc(NC(=O)Cc5ccccc5)s4)CC3)cc2)CC1`
> 10 µM

---

- Tested on: HCT-116
- EXPERIMENT_SUMMARY: cells
- SETTINGS: Homo sapiens
READOUT: IC50 (µM)

Answered cases to consult:
INSERT INTO assay_data (molecule, observed_measurement) VALUES
  ('O=C(Cc1ccccc1)Nc1nnc(N2CCN(Cc3ccc(C(=O)NC4CCCC4)cc3)CC2)s1', 1.49),
  ('CN1CCC(CNC(=O)c2cccc(COCCC3CCN(c4nnc(NC(=O)Cc5ccccc5)s4)CC3)c2)CC1', 8.12),
  ('CCN(CC)CCNC(=O)c1cccc(CN2CCN(c3nnc(NC(=O)Cc4ccccc4)s3)CC2)c1', 1.49),
  ('O=C(Cc1ccccc1)Nc1nnc(CCSCCc2nnc(NC(=O)Cc3ccccc3)s2)s1', 44),
  ('O=C(Cc1ccccc1)Nc1nnc(N2CCN(Cc3ccc(C(=O)N4CCC(CO)CC4)cc3)CC2)s1', 3.92),
  ('CN1CCN(c2ccc(NC(=O)c3ccc(CN4CCN(c5nnc(NC(=O)Cc6ccccc6)s5)CC4)cc3)cc2)CC1', 0.67),
  ('CN1CCN(c2cccc(C(=O)Nc3cccc(CN4CCN(c5nnc(NC(=O)Cc6ccccc6)s5)CC4)c3)c2)CC1', 1.19),
  ('CN1CCN(c2ccc(C(=O)Nc3ccc(CN4CCN(c5nnc(NC(=O)Cc6ccccc6)s5)CC4)cc3)cc2)CC1', 0.53);

[1] Cc1ccccc1CN1CCC(CNC(=O)c2cccc(COCCC3CCN(c4nnc(NC(=O)Cc5ccccc5)s4)CC3)c2)CC1
[2] CCN(CC)CCNC(=O)c1ccc(CN2CCN(c3nnc(NC(=O)Cc4ccccc4)s3)CC2)cc1
[3] CN1CCC(CNC(=O)c2ccc(COCCC3CCN(c4nnc(NC(=O)Cc5ccccc5)s4)CC3)cc2)CC1
[4] O=C(Cc1ccccc1)Nc1nnc(N2CCC(CCOCc3cccc(C(=O)NCCN4CCCC4)c3)CC2)s1
[5] CCCCN1CCC(CNC(=O)c2ccc(COCCC3CCN(c4nnc(NC(=O)Cc5ccccc5)s4)CC3)cc2)CC1
Put the molecules in ascending order of IC50. Your answer should be the labels, listed in the requested order.
1, 5, 3, 2, 4
(1: 0.55 µM, 5: 0.91 µM, 3: 1.51 µM, 2: 2.86 µM, 4: 8.95 µM)
